Values from patent US4243674A

System: phenylbenzoquinone-induced writhing
Test: Suppression of phenylbenzoquinone irritant-induced writhing (PBQ)
Format: in vivo, Carworth Farms CF-1 mice
Settings: Mus musculus, mice, read-out: ANALGESIC ACTIVITY ED50, PBQ
Procedure: Test Using Chemical Nociceptive Stimuli Suppression of Phenylbenzoquinone Irritant-Induced Writhing Groups of 5 Carworth Farms CF-1 mice are pretreated subcutaneously or orally with saline, morphine, codeine or the test compound. […] Results of the above tests are recorded as percent maximum possible effect (% MPE). […] The % MPE is calculated as follows: [formula] […]
recorded-endpoint: ED50 (mg/kg)
Kindly provide the numeric value in mg/kg only, without the unit symbol.

Task: Provide measured ED50 value, entry: CCCCCc1cc(O)c2c(c1)OC(C)(C)[C@@H]1CC[C@@H](O)C[C@@H]21 (relative stereo) [C5 H11, reference compound]
Output: 0.68

Task: Provide measured ED50 value, entry: CC1(C)Oc2cc(OC3CCCCC3)cc(O)c2[C@@H]2C[C@H](O)CC[C@H]21 (relative stereo)
Output: 5.3

Task: Provide measured ED50 value, entry: CC(CCc1ccccc1)Oc1cc(O)c2c(c1)OC(C)(C)[C@@H]1CC[C@@H](O)C[C@@H]21 (relative stereo)
Output: 0.21

Task: Provide measured ED50 value, entry: CC(CCCOc1ccccc1)c1cc(O)c2c(c1)OC(C)(C)[C@@H]1CC[C@@H](O)C[C@@H]21 (relative stereo)
Output: 0.39

Task: Provide measured ED50 value, entry: CC(CCCc1ccncc1)c1cc(O)c2c(c1)OC(C)(C)[C@@H]1CC[C@@H](O)C[C@@H]21 (relative stereo)
Output: 0.17

Task: Provide measured ED50 value, entry: CC(CCc1ccccc1)c1cc(O)c2c(c1)OC(C)(C)[C@@H]1CC[C@@H](O)C[C@@H]21 (relative stereo)
Output: 5

Task: Provide measured ED50 value, entry: CCCCCC(C)C(C)c1cc(O)c2c(c1)OC(C)(C)[C@@H]1CC[C@@H](O)C[C@@H]21 (relative stereo) [CH(CH3)CH(CH3)C5 H11, reference compound]
Output: 0.1

Task: Provide measured ED50 value, entry: CC(CCCc1ccccc1)c1cc(O)c2c(c1)OC(C)(C)[C@@H]1CC[C@@H](O)C[C@@H]21 (relative stereo)
Output: 0.062

Task: Provide measured ED50 value, entry: CCCCCC(C)Oc1cc(O)c2c(c1)OC(C)(C)[C@@H]1CC[C@@H](O)C[C@@H]21 (relative stereo)
Output: 0.16

Task: Provide measured ED50 value, entry: CC(CCCCc1ccccc1)c1cc(O)c2c(c1)OC(C)(C)[C@@H]1CC[C@@H](O)C[C@@H]21 (relative stereo)
Output: 1.33

Task: Provide measured ED50 value, entry: CC(CCCc1ccccc1)Oc1cc(O)c2c(c1)OC(C)(C)[C@@H]1CC[C@@H](O)C[C@@H]21 (relative stereo)
Output: 0.11

---

test system: tail flick; test: Mouse tail flick analgesic testing (TF); assay type: in vivo, mice; conditions: Mus musculus; tail flick, mice
recorded-endpoint: ED50

Task: Provide measured ED50 value, entry: CC1(C)Oc2cc(OC3CCCCC3)cc(O)c2[C@@H]2C[C@H](O)CC[C@H]21 (relative stereo)
Output: > 10 mg/kg

Task: Provide measured ED50 value, entry: CC(CCCCc1ccccc1)c1cc(O)c2c(c1)OC(C)(C)[C@@H]1CC[C@@H](O)C[C@@H]21 (relative stereo)
Output: 2.8 mg/kg

Task: Provide measured ED50 value, entry: CCCCCc1cc(O)c2c(c1)OC(C)(C)[C@@H]1CC[C@@H](O)C[C@@H]21 (relative stereo) [C5 H11, reference compound]
Output: 3.2 mg/kg

Task: Provide measured ED50 value, entry: CC(CCCOc1ccccc1)c1cc(O)c2c(c1)OC(C)(C)[C@@H]1CC[C@@H](O)C[C@@H]21 (relative stereo)
Output: 1.2 mg/kg
